Data credit: the supplement of paper PMC7125110

B1: glmS ribozyme (parent)
chain: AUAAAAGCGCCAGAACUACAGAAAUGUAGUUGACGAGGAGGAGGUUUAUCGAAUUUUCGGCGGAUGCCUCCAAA

Variants of: B1
test method notes: kcat; higher = faster cleavage; RNA array
details: with glucosamine-6-phosphate
This sample holds only a part of the variants without activity.
metric: kcat (s⁻¹)

- sequence entry: "AUAAAAGCGCCAGAACUACAGAAAUGUACUUGACGAGGAGGAGGUUUAUCGACUUUUCGGCGGAUGCCUCCAAA [G29C A53C]"
  qualifier symbol: "="
  meas value: 0.000417
- sequence entry: "AUAAAAGCGCCAGAACUACAGAAAUGUAGGUGACGAGGAGGAGGUUUAUCGAAUUUUCGGCGGAUGCUUCCAAA [U30G C68U]"
  qualifier symbol: "="
  meas value: 0.00118
- sequence entry: "AUAAAAGCGCCAGAACUACAGAAAUGUAGUUAACGAGGAGGAGGUUUAUCGAUUUUUCGGCGGAUGCCUCCAAA [G32A A53U]"
  qualifier symbol: "="
  meas value: 0.00208
- sequence entry: "AUAAAAGCGCCAGAAGUACAGAAAUGUAGUUGACGAGGAGGAGGUUUAUCGAAUCUUCGGCGGAUGCCUCCAAA [C16G U55C]"
  qualifier symbol: "="
  meas value: 0.00146
- sequence entry: "AUAAAAGCGCCCGAACUACAGAAAUGUAGUUGACGAGGAGGAGGUUUAUGGAAUUUUCGGCGGAUCCCUCCAAA [A12C C50G G66C]"
  qualifier symbol: "="
  meas value: 0.000103
- sequence entry: "AUAAAAGCGCCAGAACUACAGAAAUGUAGUUGACGAGGAGGAGGUUUAUCGAAUUUUUGGCGGAUCCCUCCAAA [C58U G66C]"
  qualifier symbol: "<"
  meas value: "1e-05"
- sequence entry: "AUAAAAGCGCCAGAACUACAGAAAUGUAGUCGACGAGGAGGAGGUUAAUCGAAUUUUCGGCGGAUGCCUCCAAA [U31C U47A]"
  qualifier symbol: "="
  meas value: 0.00379
- sequence entry: "AUAAAAGCGCCAGAUCUACAGAAAUGUACUUGACGAGGAGGAGGUUUAUCGAAUUUUCGGCGGAUGCCUCCAAA [A15U G29C]"
  qualifier symbol: "="
  meas value: 0.00199
- sequence entry: "AUAAAAGCGCCAGAACUACAGAAAUGUAGUUGCCGAGGAGGAGGUUUAUCGAAAUUUCGGCGGAUGCCUCCAAA [A33C U54A]"
  qualifier symbol: "="
  meas value: 0.00129
- sequence entry: "AUAAAAGCGCUAGAACUACAGAAAUGUAGUUGACGACGAGGAGGUUUAUCGAAUUUACGGCGGAUGCCUCCAAA [C11U G37C U57A]"
  qualifier symbol: "="
  meas value: "1.82e-05"
- sequence entry: "AUAAAAGCGCCAGAACUACAGAAAUGUAGUGGACGAGGAGGAGGUUUAUCGAAUUUUCGGCGGAGGCCUCCAAA [U31G U65G]"
  qualifier symbol: "="
  meas value: 0.00259
- sequence entry: "AUAAAAGCGCCAUAGCUACAGAAAUGUAGUUAACGAGGAGGAGGUUUAUCGAAUUUUCGGCGGAUGCCUGCAAA [G13U A15G G32A C70G]"
  qualifier symbol: "="
  meas value: "9.35e-05"
- sequence entry: "AUAAAAGCGCCAGAAGUACAGAAAUGUAGUUAACGAGGAGGAGGUUUAUCGAAUUUUCGGCGGAUGCCUCCAAA [C16G G32A]"
  qualifier symbol: "="
  meas value: 0.0013
- sequence entry: "AUAAAAGCGCCAGAACUACAGAAAUGUAGUUGACGAGGAGGCGGUUUAGCGAAUUUUCGGCGGAUGCCUCCAAA [A42C U49G]"
  qualifier symbol: "="
  meas value: "1.03e-05"
- sequence entry: "AUAAAAGCGCCAGAACUACAGAAAUGUAGUUGACGAGUAGGAGGUUUAUCGAAUUUUCGGCGGAUGCCUCCAAA [G38U]"
  qualifier symbol: "<"
  meas value: "1e-05"
- sequence entry: "AUAAAAGCGCCAGAACUACAGAAAUGUAGUUGACGACGAGGAGGUUUAUCGAUUUUUCGGCGGAUGCCUCCAAA [G37C A53U]"
  qualifier symbol: "="
  meas value: "2.09e-05"
- sequence entry: "AUAAAAGCGCCAGAACUACAGAAAUGUAGUUGACGAGGAGGAGGUUUAUCGAAUUUUCGGCGGCUGCCUCCAAA [A64C]"
  qualifier symbol: "="
  meas value: 0.000188
- sequence entry: "AUAAAAGCGCCAGAACUACAGAAAUGUAGUUGACGAGGAGGAGGUUUCUCGACUUUUCGGCGGAUGCCUCCAAA [A48C A53C]"
  qualifier symbol: "="
  meas value: "9.8e-05"
- sequence entry: "AUAAAAGCGCCAGAAUUACAGAAAUGUAGUUGACGAGGUGGAGGUUUAUCGAAUUUUCGGCGGAUGCCUCCAAA [C16U A39U]"
  qualifier symbol: "="
  meas value: 0.0586
- sequence entry: "AUAAAGGCGCCAGAACUACAGAAAUGUAGUUGACGAGGAGGAGGAUUAUCGAAUUUUCGGCGGAUGCCUCCAAA [A6G U45A]"
  qualifier symbol: "="
  meas value: 0.000591
- sequence entry: "AUAAAAGCGCCAGAACUACAGAAAUGUAGAUGACGAGGAGGAGGUUUAUCGAAUUUUCGACGGAUGCCUCCAAA [U30A G60A]"
  qualifier symbol: "<"
  meas value: "1e-05"
